- Study System: panel of 442 kinases (Homo sapiens)
- Construct: purchased KINOMEscan
- Sequence (P42681 1-527): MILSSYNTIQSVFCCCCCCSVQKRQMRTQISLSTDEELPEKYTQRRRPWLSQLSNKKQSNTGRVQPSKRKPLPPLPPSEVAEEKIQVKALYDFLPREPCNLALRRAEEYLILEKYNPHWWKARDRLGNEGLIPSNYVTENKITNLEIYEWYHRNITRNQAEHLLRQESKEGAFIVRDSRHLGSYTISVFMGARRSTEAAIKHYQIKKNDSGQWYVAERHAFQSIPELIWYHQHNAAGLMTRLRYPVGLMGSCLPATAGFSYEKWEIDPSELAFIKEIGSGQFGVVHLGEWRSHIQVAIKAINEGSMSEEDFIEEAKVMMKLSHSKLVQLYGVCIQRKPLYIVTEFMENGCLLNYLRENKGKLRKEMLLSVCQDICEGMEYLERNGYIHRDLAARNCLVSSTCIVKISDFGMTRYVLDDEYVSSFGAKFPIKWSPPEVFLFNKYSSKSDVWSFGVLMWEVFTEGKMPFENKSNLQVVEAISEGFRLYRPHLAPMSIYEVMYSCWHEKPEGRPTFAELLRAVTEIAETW
- Type: binding
- Measurement Conditions: kinase TXK; compound concentration 10 µM
Readout: % Ctrl, TXK (% Ctrl)
Only the number, expressed in % Ctrl, is required.

{"Smiles Record": "CCOc1cc(C(=O)N2CCC(N3CCN(C)CC3)CC2)ccc1Nc1ncc2c(n1)N(C1CCCC1)c1ccccc1C(=O)N2C", "% Ctrl, TXK (% Ctrl)": 100}

Exercise: Need % Ctrl, TXK, item COc1cc(C(=O)N2CCC(N3CCN(C)CC3)CC2)ccc1Nc1ncc2c(n1)N(C)c1ccccc1C(=O)N2C
Solution: 91

Exercise: Need % Ctrl, TXK, item COc1cc(C(=O)N2CCC(N3CCN(C)CC3)CC2)ccc1Nc1ncc2c(n1)N(C1CCCC1)c1ccccc1C(=O)N2C
Solution: 95

Exercise: Need % Ctrl, TXK, item COc1cc(C(=O)N2CCC(N3CCN(C)CC3)CC2)ccc1Nc1ncc2c(n1)N1CCc3cccc(c31)C(=O)N2C
Solution: 93

====

- Study System: panel of 442 kinases (Homo sapiens, UniProt Q99759)
- Construct: purchased KINOMEscan
- Sequence (Q99759 whole entry): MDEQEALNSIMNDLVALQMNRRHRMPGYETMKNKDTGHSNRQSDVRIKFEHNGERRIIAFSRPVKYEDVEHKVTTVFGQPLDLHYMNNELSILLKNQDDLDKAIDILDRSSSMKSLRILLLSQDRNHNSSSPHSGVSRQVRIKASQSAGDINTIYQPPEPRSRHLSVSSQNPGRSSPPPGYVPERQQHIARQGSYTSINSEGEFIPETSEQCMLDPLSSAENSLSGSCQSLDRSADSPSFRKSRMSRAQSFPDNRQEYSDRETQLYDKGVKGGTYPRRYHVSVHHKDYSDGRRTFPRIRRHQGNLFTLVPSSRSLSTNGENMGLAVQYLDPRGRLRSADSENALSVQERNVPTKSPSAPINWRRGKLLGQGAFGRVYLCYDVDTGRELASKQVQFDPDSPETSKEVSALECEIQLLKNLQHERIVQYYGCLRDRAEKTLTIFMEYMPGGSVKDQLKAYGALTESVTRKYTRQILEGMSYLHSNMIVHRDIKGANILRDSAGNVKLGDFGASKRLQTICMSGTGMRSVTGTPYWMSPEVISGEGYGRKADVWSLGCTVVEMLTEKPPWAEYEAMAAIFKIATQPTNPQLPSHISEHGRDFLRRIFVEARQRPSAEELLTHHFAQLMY
- Format: binding
- Measurement Conditions: Compound Concentration 10 µM
Readout: KINOMEscan: MAP3K3
Kindly provide the number alone.

{"Compound": "CCOc1cc(C(=O)N2CCC(N3CCN(C)CC3)CC2)ccc1Nc1ncc2c(n1)N(C1CCCC1)c1ccccc1C(=O)N2C [Compound 26]", "Readout": "KINOMEscan: MAP3K3", "Observed": 100}

Exercise: // lookup KINOMEscan: MAP3K3 | system=panel of 442 kinases (Homo sapiens, UniProt Q99759) | key= COc1cc(C(=O)N2CCC(N3CCN(C)CC3)CC2)ccc1Nc1ncc2c(n1)N1CCc3cccc(c31)C(=O)N2C [Compound 24]
Solution: 98

Exercise: // lookup KINOMEscan: MAP3K3 | system=panel of 442 kinases (Homo sapiens, UniProt Q99759) | key= COc1cc(C(=O)N2CCC(N3CCN(C)CC3)CC2)ccc1Nc1ncc2c(n1)N(C)c1ccccc1C(=O)N2C [15 (LRRK2-IN-1)]
Solution: 97

Exercise: // lookup KINOMEscan: MAP3K3 | system=panel of 442 kinases (Homo sapiens, UniProt Q99759) | key= COc1cc(C(=O)N2CCC(N3CCN(C)CC3)CC2)ccc1Nc1ncc2c(n1)N(C1CCCC1)c1ccccc1C(=O)N2C [Compound 25]
Solution: 100
